Ref: PubChem BioAssay (NCI)

assay: NCI Yeast Anticancer Drug Screen. Data for the cln2 rad14 strain (AID 165);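 further: 0% = growth equal to vehicle treated cultures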; details: S. cerevisiae cln2 rad14 strain, at 50.0 µM, stronger effect = higher value
The panel holds about 79,000 compounds, 15% with a hit somewhere; the sample as a whole holds those more often.
value-type: growth inhibition (%)
Give the value in % but do not write % after it.

Recorded results for 5 compounds are shown here.
compound	endpoint-unit	growth inhibition
COc1cc(O)c2c(c1)C(=O)c1cc(C)cc(O)c1C2=O	%	-21.1
C=C(C)C(=O)O[C@H]1CC2=C[C@@H](C[C@@]3(C)O[C@@H]3[C@H]3OC(=O)C(=C)[C@@H]31)OC2=O	%	6.4
C=CCOC(=O)CCCCC(=O)OCC=C	%	6.1
CC(=O)O[C@H]1[C@@H]2[C@@H]3[C@@H](C[C@H]1C)[C@@H](C)CO[C@@]1(C)CC/C=C(/C)C[C@@H]2O[C@@H]31	%	-19.1
COc1ccccc1C(=O)N(C)c1ccc(Cl)c(C(=O)OC(C)C)c1	%	37.7

Then this compound:
So what does the record say about growth inhibition for CCc1c2c(cc3c1CC1(C3)Cc3cc4c(c(C(=O)OC)c3C1)CCCC4)CCCC2 (stereo not given) ?
9.65
